- System Under Test: HLA-B4601 (Homo sapiens, UniProt P01889, A329T/A93R/C349S/D201E/E100V/E187L/E204Q/E69M/E70A/I90K/K202T/N87E/R155S/R180W/S121R/S35A/S48A/V306I/V36M/Y140S)
- Assay Name: Competitive peptide binding assay, CIR-B4601
- Recorded Conditions: HMy2.CIR-B4601 cells, reference Cy5-[…], class from inhibition at 5 and 15 μM, flow cytometry MFI; read-out: Binding affinity with HLA-B4601
- Procedure: Then, competitive peptide binding assays were performed.
pIC50: −log10 of the molar value. Peptide text beside a SMILES is read from it.
Parameter: pIC50

CC[C@H](C)[C@H](NC(=O)[C@H](C)NC(=O)CNC(=O)[C@@H](NC(=O)[C@H](Cc1ccc(O)cc1)NC(=O)[C@@H](NC(=O)[C@@H](N)CC(C)C)[C@@H](C)O)[C@@H](C)O)C(=O)N[C@@H](CCCCN)C(=O)N[C@@H](CC(C)C)C(=O)O [Epitope Y243] (H-LTYTGAIKL-OH; N-terminus and C-terminus assumed)    > 5.30

Query molecule follows.
Exam item: Recorded pIC50 of CC(C)C[C@H](NC(=O)[C@H](CC(C)C)NC(=O)[C@H](C)NC(=O)[C@H](CCC(N)=O)NC(=O)[C@H](CCCNC(=N)N)NC(=O)[C@@H](NC(=O)[C@H](CCCNC(=N)N)NC(=O)[C@H](CCC(=O)O)NC(=O)CN)C(C)C)C(=O)O [Epitope Y202] (H-GERVRQALL-OH; N-terminus and C-terminus assumed) , please.
Marked response: 4.82 to 5.30

====

- System Under Test: HLA-C0302 (Homo sapiens, UniProt P10321, A176E/A330V/A97T/C25G/C350S/D114A/D33Y/E197K/L127V/L171W/L218V/M285V/M309V/M331V/P208H/Q277E/Q291P/R243W/R45H/S123Y/S297R/S48A/T118I/T187L/T329A/T363A/V319A)
- Assay Name: Competitive peptide binding assay, CIR-C0302
- Recorded Conditions: HMy2.CIR-C0302 cells, reference Cy5-[…], class from inhibition at 5 and 15 μM, flow cytometry MFI; read-out: Binding affinity with HLA-C0302
pIC50: −log10 of the molar value. Peptide text beside a SMILES is read from it.
Entries and their measured pIC50 follow.

CC(C)C[C@H](NC(=O)[C@H](Cc1ccccc1)NC(=O)[C@@H](NC(=O)[C@@H](N)C(C)C)C(C)C)C(=O)N[C@@H](Cc1c[nH]cn1)C(=O)N[C@H](C(=O)N[C@H](C(=O)N[C@@H](Cc1ccc(O)cc1)C(=O)N[C@H](C(=O)O)C(C)C)[C@@H](C)O)C(C)C [Epitope M131] (H-VVFLHVTYV-OH; N-terminus and C-terminus assumed)    < 4.82
CSCC[C@H](NC(=O)[C@H](C)NC(=O)[C@@H](N)Cc1ccccc1)C(=O)N[C@@H](CCC(N)=O)C(=O)N[C@@H](CCSC)C(=O)N[C@@H](C)C(=O)N[C@@H](Cc1ccc(O)cc1)C(=O)N[C@@H](CCCNC(=N)N)C(=O)N[C@@H](Cc1ccccc1)C(=O)O [Epitope M63]    > 5.30
CSCC[C@H](NC(=O)[C@H](CO)NC(=O)[C@H](CCCNC(=N)N)NC(=O)[C@@H](NC(=O)[C@H](CCCNC(=N)N)NC(=O)[C@H](C)NC(=O)[C@@H](N)Cc1ccccc1)[C@@H](C)O)C(=O)N[C@@H](Cc1c[nH]c2ccccc12)C(=O)N[C@@H](CO)C(=O)N[C@@H](Cc1ccccc1)C(=O)O [Epitope M71] (H-FARTRSMWSF-OH; N-terminus and C-terminus assumed)    > 5.30
CC[C@H](C)[C@H](NC(=O)[C@H](C)NC(=O)[C@H](C)NC(=O)[C@H](CC(N)=O)NC(=O)CNC(=O)[C@H](CC(=O)O)NC(=O)[C@H](CCC(N)=O)NC(=O)[C@H](C)NC(=O)[C@@H](N)Cc1ccccc1)C(=O)O [Epitope M22] (H-FAQDGNAAI-OH; N-terminus and C-terminus assumed)    > 5.30

Query compound follows.
Exam item: Recorded pIC50 of CSCC[C@H](NC(=O)[C@H](C)NC(=O)[C@@H]1CCCN1C(=O)[C@H](CC(=O)O)NC(=O)[C@H](C)NC(=O)[C@H](C)NC(=O)[C@H](Cc1ccc(O)cc1)NC(=O)[C@@H](NC(=O)[C@@H](N)CC(C)C)C(C)C)C(=O)O [Epitope M58] (H-LVYAADPAM-OH; N-terminus and C-terminus assumed) , please.
Marked response: > 5.30

====

- System Under Test: HLA-B4601 (Homo sapiens, UniProt P01889, A329T/A93R/C349S/D201E/E100V/E187L/E204Q/E69M/E70A/I90K/K202T/N87E/R155S/R180W/S121R/S35A/S48A/V306I/V36M/Y140S)
- Assay Name: Competitive peptide binding assay, CIR-B4601
- Recorded Conditions: HMy2.CIR-B4601 cells, reference Cy5-[…], class from inhibition at 5 and 15 μM, flow cytometry MFI; read-out: Binding affinity with HLA-B4601
Peptide text beside a SMILES is read from it.
Entries and their measured IC50 follow.

CSCC[C@H](NC(=O)[C@H](C)NC(=O)[C@@H]1CCCN1C(=O)[C@H](CC(=O)O)NC(=O)[C@H](C)NC(=O)[C@H](C)NC(=O)[C@H](Cc1ccc(O)cc1)NC(=O)[C@@H](NC(=O)[C@@H](N)CC(C)C)C(C)C)C(=O)O [Epitope Y165] (H-LVYAADPAM-OH; N-terminus and C-terminus assumed)    5 to 15 µM
CC[C@H](C)[C@H](NC(=O)[C@@H](NC(=O)[C@H](CC(C)C)NC(=O)[C@H](CC(N)=O)NC(=O)[C@H](Cc1c[nH]c2ccccc12)NC(=O)[C@H](CCC(N)=O)NC(=O)[C@H](CCC(=O)O)NC(=O)[C@@H](N)CC(C)C)C(C)C)C(=O)NCC(=O)O [Epitope Y215] (H-LEQWNLVIG-OH; N-terminus and C-terminus assumed)    5 to 15 µM
CC(C)C[C@H](NC(=O)[C@H](CC(C)C)NC(=O)[C@H](CC(C)C)NC(=O)[C@H](CC(N)=O)NC(=O)[C@H](CO)NC(=O)[C@H](CS)NC(=O)[C@H](CCC(=O)O)NC(=O)[C@@H](N)[C@@H](C)O)C(=O)N[C@@H](CCC(N)=O)C(=O)N[C@@H](Cc1ccc(O)cc1)C(=O)O [Epitope Y231] (H-TECSNLLLQY-OH; N-terminus and C-terminus assumed)    < 5 µM
CC[C@H](C)[C@H](NC(=O)[C@H](CC(C)C)NC(=O)[C@H](CS)NC(=O)CNC(=O)[C@H](C)NC(=O)[C@H](CCCNC(=N)N)NC(=O)[C@@H](NC(=O)[C@H](CCC(N)=O)NC(=O)[C@@H](N)Cc1ccccc1)[C@@H](C)O)C(=O)O [Epitope Y89] (H-FQTRAGCLI-OH; N-terminus and C-terminus assumed)    > 15 µM
CC[C@H](C)[C@H](NC(=O)CNC(=O)[C@H](CC(=O)O)NC(=O)[C@H](CCCCN)NC(=O)[C@H](CC(N)=O)NC(=O)[C@H](C)NC(=O)CNC(=O)[C@H](Cc1ccc(O)cc1)NC(=O)[C@@H]1CCCN1C(=O)[C@@H](N)CC(C)C)C(=O)O [Epitope Y273] (H-LPYGANKDGI-OH; N-terminus and C-terminus assumed)    > 15 µM
CC[C@H](C)[C@H](NC(=O)CNC(=O)[C@H](CC(=O)O)NC(=O)[C@H](CCCCN)NC(=O)[C@H](CC(N)=O)NC(=O)[C@H](C)NC(=O)CN)C(=O)N[C@H](C(=O)N[C@@H](Cc1c[nH]c2ccccc12)C(=O)O)[C@@H](C)CC [Epitope Y301] (H-GANKDGIIW-OH; N-terminus and C-terminus assumed)    5 to 15 µM
CC[C@H](C)[C@H](NC(=O)[C@H](C)NC(=O)[C@@H](N)CC(C)C)C(=O)N[C@@H](CC(C)C)C(=O)N[C@H](C(=O)N[C@@H](C)C(=O)N[C@@H](CC(C)C)C(=O)N[C@@H](CCCNC(=N)N)C(=O)N[C@@H](CC(C)C)C(=O)O)[C@@H](C)O [Epitope Y7] (H-LAILTALRL-OH; N-terminus and C-terminus assumed)    > 15 µM
CC[C@H](C)[C@H](NC(=O)[C@H](CCC(N)=O)NC(=O)[C@@H](N)CC(C)C)C(=O)N1CCC[C@H]1C(=O)N[C@@H](Cc1ccccc1)C(=O)N[C@@H](C)C(=O)N[C@@H](CCSC)C(=O)N[C@@H](CCC(N)=O)C(=O)N[C@@H](CCSC)C(=O)O [Epitope Y81] (H-LQIPFAMQM-OH; N-terminus and C-terminus assumed)    > 15 µM
CC[C@H](C)[C@H](NC(=O)[C@H](CC(N)=O)NC(=O)[C@H](CCCCN)NC(=O)[C@H](Cc1ccccc1)NC(=O)[C@@H](NC(=O)[C@@H](N)Cc1ccccc1)C(C)C)C(=O)N[C@@H](CC(=O)O)C(=O)NCC(=O)N[C@@H](Cc1ccc(O)cc1)C(=O)O [Epitope Y172] (H-FVFKNIDGY-OH; N-terminus and C-terminus assumed)    > 15 µM
CSCC[C@H](NC(=O)[C@H](CO)NC(=O)[C@H](CCCNC(=N)N)NC(=O)[C@@H](NC(=O)[C@H](CCCNC(=N)N)NC(=O)[C@H](C)NC(=O)[C@@H](N)Cc1ccccc1)[C@@H](C)O)C(=O)N[C@@H](Cc1c[nH]c2ccccc12)C(=O)N[C@@H](CO)C(=O)N[C@@H](Cc1ccccc1)C(=O)O [Epitope Y47] (H-FARTRSMWSF-OH; N-terminus and C-terminus assumed)    > 15 µM

Exam item: Recorded IC50 of CC[C@H](C)[C@H](NC(=O)[C@H](CC(C)C)NC(=O)[C@H](CCC(N)=O)NC(=O)[C@H](CCC(N)=O)NC(=O)[C@@H](NC(=O)[C@@H](NC(=O)[C@H](Cc1ccc(O)cc1)NC(=O)[C@@H](NC(=O)[C@H](CCC(N)=O)NC(=O)[C@@H](N)CC(C)C)[C@@H](C)O)C(C)C)[C@@H](C)O)C(=O)O [Epitope Y118] (H-LQTYVTQQLI-OH; N-terminus and C-terminus assumed) , please.
Marked response: > 15 µM

Origin of values: paper PMC12133982
